Just for reference, paper PMC10674987 is where these values come from.

- EXPERIMENTAL PROTOCOL: Bidirectional permeability in Caco-2 cells in absence and presence of SCE
- Format: in vitro ADME, human
- EXPERIMENTAL CONDITIONS: human, Caco-2, Free; 10 µM compound; basolateral to apical
Papp B→A at 2 h, 10 µM class ranges: low value = under 80 nm/s, medium value = from 80 nm/s up to 300 nm/s, high value = 300 nm/s and over

COMPOUND	ANSWER LABEL
CC(Cn1ncc2c(Nc3cccc(O)c3)nc(NCCO)nc21)c1ccccc1 (stereo not drawn)	high value

Okay, now this compound:
Classify this compound: CC(Cn1ncc2c(Nc3cc(O)ccc3Cl)nc(NCCO)nc21)c1ccccc1 (stereo not drawn)
medium value
